The reported numbers originate from PubChem BioAssay (NCI).

tested on: OVCAR-8 ovarian; test: NCI tumour cell line growth inhibition, 48 h

{"COMPOUND": "CC(=O)OC1CCn2nnc(COC(=O)NC(C)C)c21 (stereo not drawn)", "TGI": "> 100 µM"}
{"COMPOUND": "O=C1/C(=C/c2ccccc2Cl)N=C(c2ccccc2)N1Cc1ccco1", "TGI": "> 100 µM"}
{"COMPOUND": "O=[N+]([O-])c1ccccc1N=Nc1c(O)[nH]c2ccccc12", "TGI": "> 53.5 µM"}
{"COMPOUND": "C(=C1c2ccccc2-c2ccccc21)c1ccccn1", "TGI": "77.8 µM"}
{"COMPOUND": "O=C(Nc1cc(C(F)(F)F)ccc1F)Nc1n[nH]c2ccccc12", "TGI": "> 100 µM"}
{"COMPOUND": "CC(=O)OC1COC(S[As](C)C)C(OC(C)=O)C1OC(C)=O (stereo not drawn)", "TGI": "5.31 µM"}
{"COMPOUND": "O=C(OCCOCBr)c1ccccc1", "TGI": "> 100 µM"}
{"COMPOUND": "C=C=C(C)[Si](C)(C)C", "TGI": "> 100 µM"}
{"COMPOUND": "C=C1CC(CCCl)(c2ccccc2)OC1=O (stereo not drawn)", "TGI": "> 100 µM"}
{"COMPOUND": "COC(=O)NCCc1[nH]nc2c1C(=O)C=C(Nc1ccccc1)C2=O", "TGI": "40.2 µM"}
{"COMPOUND": "O=C1C2C=CC1C1C(=O)OC(=O)C21 (stereo not drawn)", "TGI": "> 100 µM"}
{"COMPOUND": "O=C(COc1cccc(/C=C2\\COc3ccccc3C2=O)c1)Nc1nccs1", "TGI": "11.2 µM"}
{"COMPOUND": "O=C(CSc1nc(=O)[nH]c2nc[nH]c12)Nc1ccccc1", "TGI": "> 100 µM"}
{"COMPOUND": "CCC[CH2][Sn]([CH2]CCC)([O]C(=O)c1cccc(F)c1)[O]C(=O)c1cccc(F)c1", "TGI": "2.6 µM"}
{"COMPOUND": "CC(C)(C)[Si](C)(C)OCCCC#CCO", "TGI": "> 100 µM"}
{"COMPOUND": "Cc1c(-c2cc3n(n2)C(c2cccs2)C(C#N)=C(c2ccccc2)N3)c(=O)n(-c2ccccc2)n1C (stereo not drawn)", "TGI": "> 100 µM"}
{"COMPOUND": "CC(C)(C)c1ccc([I+]c2ccc(C(C)(C)C)cc2)cc1", "TGI": "3.72 µM"}
{"COMPOUND": "Nc1cc(-c2ccccc2)ccc1O", "TGI": "> 100 µM"}

====

Listed here: items and their measured TGI.
system: RPMI-8226 leukemia; test: NCI tumour cell line growth inhibition, 48 h

{"MOLECULE": "O=C1CCCC/C1=C/C=C/c1ccccc1", "TGI": "> 100 µM"}
{"MOLECULE": "CC(=O)O[C@H]1C[C@]2(C)C(CCC3O[C@@]32C)[C@@]2(CC(c3ccoc3)OC2O)[C@@H]1C (stereo partly drawn)", "TGI": "81.1 µM"}
{"MOLECULE": "Cc1nc2c(o1)C(=O)c1ccccc1/C2=N/c1ccccn1", "TGI": "> 100 µM"}
{"MOLECULE": "O=C1C2C=CC1C1C(=O)OC(=O)C21 (stereo not drawn)", "TGI": "> 100 µM"}
{"MOLECULE": "CC(=O)Nc1ncc(Sc2ccccc2C(=O)O)s1", "TGI": "> 100 µM"}
{"MOLECULE": "[Cu+2].[O-]c1ccc2ccccc2c1N=Nc1ccccc1.[O-]c1ccc2ccccc2c1N=Nc1ccccc1", "TGI": "> 100 µM"}
{"MOLECULE": "CCC[C@H](N[C@@H]1CCc2cc(F)cc(F)c2C1)C(=O)Nc1cn(C(C)(C)CNCC(C)(C)C)cn1", "TGI": "34.8 µM"}
{"MOLECULE": "O=C(CSc1nc(=O)[nH]c2nc[nH]c12)Nc1ccccc1", "TGI": "> 100 µM"}

====

tested on: NCI-H522 lung; assay: NCI tumour cell line growth inhibition, 48 h
MEASURED QUANTITY: TGI (µM)

{"MOLECULE": "N=C(c1ccccc1)N(O)C1CCCCC1", "MEASUREMENT TARGET": "NCI-H522 lung", "INEQUALITY SIGN": ">", "OBSERVED MEASUREMENT": 100}
{"MOLECULE": "O=C1c2ccccc2-c2nc(-c3cccnc3)cc3c2c1nc1ccccc13", "MEASUREMENT TARGET": "NCI-H522 lung", "INEQUALITY SIGN": ">", "OBSERVED MEASUREMENT": 100}
{"MOLECULE": "C=C=C(C)[Si](C)(C)C", "MEASUREMENT TARGET": "NCI-H522 lung", "INEQUALITY SIGN": ">", "OBSERVED MEASUREMENT": 100}
{"MOLECULE": "CCOc1ccccc1/C=C1\\NC(=O)N(/C=C2\\C(=O)Oc3ccccc3C2=O)C1=O", "MEASUREMENT TARGET": "NCI-H522 lung", "INEQUALITY SIGN": ">", "OBSERVED MEASUREMENT": 100}
{"MOLECULE": "C(=C\\c1csnn1)/c1cccnc1", "MEASUREMENT TARGET": "NCI-H522 lung", "INEQUALITY SIGN": ">", "OBSERVED MEASUREMENT": 100}
{"MOLECULE": "COC(=O)NCCc1[nH]nc2c1C(=O)C=C(Nc1ccccc1)C2=O", "MEASUREMENT TARGET": "NCI-H522 lung", "INEQUALITY SIGN": "=", "OBSERVED MEASUREMENT": 28.6}
{"MOLECULE": "COc1ccc2[nH]cc(-c3nc(-c4cn(C)c5ccncc45)cs3)c2c1", "MEASUREMENT TARGET": "NCI-H522 lung", "INEQUALITY SIGN": "=", "OBSERVED MEASUREMENT": 3.52}
{"MOLECULE": "NC1CC(=O)c2csc(Br)c21 (centres undefined)", "MEASUREMENT TARGET": "NCI-H522 lung", "INEQUALITY SIGN": "=", "OBSERVED MEASUREMENT": 8.21}
{"MOLECULE": "CC(=O)Oc1ccc2c(c1)c1c(=O)oc(N(C)C)nc1n2Cc1ccccc1", "MEASUREMENT TARGET": "NCI-H522 lung", "INEQUALITY SIGN": ">", "OBSERVED MEASUREMENT": 100}
{"MOLECULE": "CN1C(=O)CNC(=O)[C@H](NC(=O)c2nc3ccccc3cc2O)CSSC[C@H]1C(=O)NCCc1nc2ccccc2cc1O", "MEASUREMENT TARGET": "NCI-H522 lung", "INEQUALITY SIGN": "=", "OBSERVED MEASUREMENT": 7.46}
{"MOLECULE": "O=c1[nH]c(Br)nc2c(Br)c[nH]c12", "MEASUREMENT TARGET": "NCI-H522 lung", "INEQUALITY SIGN": ">", "OBSERVED MEASUREMENT": 100}
{"MOLECULE": "Cc1ccc(C)c(NC(=O)c2cc(-c3ccc([N+](=O)[O-])cc3)nc(N)n2)c1", "MEASUREMENT TARGET": "NCI-H522 lung", "INEQUALITY SIGN": ">", "OBSERVED MEASUREMENT": 100}
{"MOLECULE": "COc1ccc2c(c1)CC[C@@H]1[C@@H]2CC[C@@]2(C)[C@H]1CC1(CCCCC1)[C@@H]2O", "MEASUREMENT TARGET": "NCI-H522 lung", "INEQUALITY SIGN": "=", "OBSERVED MEASUREMENT": 36.6}
{"MOLECULE": "O=C1C=C(Nc2ccccc2C(=O)CC(=O)C(=O)Nc2cccc(C(F)(F)F)c2)c2ccccc2C1=O", "MEASUREMENT TARGET": "NCI-H522 lung", "INEQUALITY SIGN": "=", "OBSERVED MEASUREMENT": 79.2}

====

test system: ACHN renal; assay: NCI tumour cell line growth inhibition, 48 h

{"COMPOUND": "O=C(CSc1nc(=O)[nH]c2nc[nH]c12)Nc1ccccc1", "TGI": "> 100 µM"}
{"COMPOUND": "CCOP(=O)(Nc1ccc(-c2ccccc2)cc1)OCC", "TGI": "> 100 µM"}
{"COMPOUND": "O=c1[nH]c(Br)nc2c(Br)c[nH]c12", "TGI": "> 100 µM"}
{"COMPOUND": "CC(=O)O[C@H]1CC[C@]2(C)[C@H]3CC[C@@H]4[C@H]5[C@H](C(C)C)CC[C@]5(C(=O)OCC(CO)(CO)N=C(N)N)CC[C@@]4(C)[C@]3(C)CC[C@H]2C1(C)C", "TGI": "3.26 µM"}
{"COMPOUND": "COCCOC(=O)C1=C(C)NC2=C(C(=O)CC(c3ccccc3OC)C2)C1c1cccc(O)c1 (configuration not stated)", "TGI": "71.2 µM"}
{"COMPOUND": "O=C1NC2(CCCCC2)N=C2C(Cl)CCCC12Cl (configuration not stated)", "TGI": "> 100 µM"}
{"COMPOUND": "COc1cc(OC)c2c(=O)c(O)c(-c3ccc(OC)c(OC)c3)oc2c1", "TGI": "> 100 µM"}
{"COMPOUND": "CCCCCCCCCCCCCCCc1cc(O)ccc1N", "TGI": "> 100 µM"}
{"COMPOUND": "Cn1c(=O)cc2c3c(c(NCCCO)ccc31)C(=O)c1ccccc1-2", "TGI": "> 100 µM"}
{"COMPOUND": "COc1ccc(C2SCC(=O)N2c2ccc(-c3ccc(-n4c(-c5ccccc5)nc5ccccc5c4=O)cc3)cc2)cc1 (configuration not stated)", "TGI": "> 100 µM"}
{"COMPOUND": "Cc1csc2nc(-c3ccc([N+](=O)[O-])cc3)c(/C=N/N=C(N)N)n12", "TGI": "2.71 µM"}
{"COMPOUND": "N#Cc1ccccc1C#C/C=C\\C#Cc1ccc(OCCCNC(=O)c2cc3ccccc3[nH]2)cc1", "TGI": "34.9 µM"}
